- SYSTEM NAME: Corticotropin-releasing factor receptor 2/Corticotropin-releasing factor-binding protein (Homo sapiens, UniProt P24387+Q13324)
- Sequence (Q13324 whole entry): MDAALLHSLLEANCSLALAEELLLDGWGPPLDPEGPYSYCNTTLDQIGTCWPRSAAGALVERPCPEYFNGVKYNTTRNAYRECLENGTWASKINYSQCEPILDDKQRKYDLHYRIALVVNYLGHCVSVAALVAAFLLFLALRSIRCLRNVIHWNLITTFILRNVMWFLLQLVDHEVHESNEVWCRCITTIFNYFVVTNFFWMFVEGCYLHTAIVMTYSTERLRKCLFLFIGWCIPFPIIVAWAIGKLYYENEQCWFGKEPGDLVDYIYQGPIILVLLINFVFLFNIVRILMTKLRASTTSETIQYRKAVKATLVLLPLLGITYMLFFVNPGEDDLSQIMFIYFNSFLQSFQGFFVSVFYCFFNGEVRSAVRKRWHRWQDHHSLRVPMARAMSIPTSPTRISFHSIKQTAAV
- Sequence (P24387 whole entry): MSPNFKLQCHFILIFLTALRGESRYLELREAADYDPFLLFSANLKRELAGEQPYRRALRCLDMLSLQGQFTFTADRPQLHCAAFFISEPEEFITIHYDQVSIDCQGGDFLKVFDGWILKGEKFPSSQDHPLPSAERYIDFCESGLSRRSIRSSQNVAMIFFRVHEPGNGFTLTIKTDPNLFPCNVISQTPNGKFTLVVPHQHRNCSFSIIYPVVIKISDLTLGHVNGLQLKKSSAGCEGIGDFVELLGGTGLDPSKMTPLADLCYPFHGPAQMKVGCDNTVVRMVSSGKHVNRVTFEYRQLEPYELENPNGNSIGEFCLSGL
- METHOD NOTES: Dose Response confirmation of uHTS hits for small molecule antagonists of the CRF-binding protein and CRF-R2 receptor complex.
- Format: functional
- CONDITION: read-out: IC50_Mean
Active and inactive are the calls of the source.
PROPERTY NAME: IC50

Query :: Fill in the blank: the reported IC50 of O=C(O)c1cccc2c1C(=O)N(Cc1ccccc1)C2 is ____.
Result :: > 47.1 µM (inactive)

Query :: Check O=C(COC(=O)C1CCN(S(=O)(=O)c2ccccc2)CC1)NC(=O)c1ccc(OC(F)F)cc1 too.
Result :: > 47.1 µM (inactive)

Query :: Consider next the compound CC1CN(C(c2ccco2)c2sc3ncnn3c2O)CC(C)O1 (stereo not drawn) in the same way.
Result :: > 47.1 µM (inactive)

Query :: And then CC(C)N(C(=O)[C@H]1C[C@H](CC(=O)NCCC2=CCCCC2)C(=O)N2CCc3c([nH]c4ccc(Cl)cc34)[C@]12C)C(C)C , what is it?
Result :: 3.6 µM (active)

Query :: Same read-out for O=C(OCC(=O)N1CCN(c2ccccc2)CC1)c1ccccn1 ?
Result :: > 47.1 µM (inactive)

Query :: Let us now turn to CSc1ncccc1C(=O)N(C)CC(=O)Nc1cccc(F)c1
Result :: > 47.1 µM (inactive)

Query :: COc1ccc(CN2CCS(=O)(=O)CC2)cc1OC ?
Result :: > 47.1 µM (inactive)

Query :: Can you handle NC(=O)COc1ncn(-c2ccccc2)n1 next?
Result :: > 47.1 µM (inactive)

---

So I've got a bunch of molecules here, and I need their IC50 values.
- SYSTEM NAME: Caspase-3 (Homo sapiens, UniProt P42574)
- Sequence (P42574 29-175 limits assumed): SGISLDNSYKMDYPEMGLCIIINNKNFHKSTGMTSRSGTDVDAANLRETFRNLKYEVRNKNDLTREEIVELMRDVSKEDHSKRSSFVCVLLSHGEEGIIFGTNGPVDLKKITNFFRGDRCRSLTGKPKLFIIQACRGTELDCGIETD
- Sequence (P42574 176-277 limits assumed): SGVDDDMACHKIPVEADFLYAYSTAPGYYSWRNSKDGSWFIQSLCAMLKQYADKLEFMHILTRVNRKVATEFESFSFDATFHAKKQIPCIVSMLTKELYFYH
- METHOD NOTES: SAR Analysis of small molecule inhibitors of Sentrin-specific proteases (SENPs) using a Caspase-3 Selectivity assay. [Related pubchem assays (depositor defined):AID2540, AID2599, AID434973, AID489001]
- Format: functional
The source made the active and inactive calls.

Query :: Entry Cc1cc(C(=O)Nc2sc3c(c2C#N)CCC3)no1 has what IC50?
Result :: 30.4 µM (active)

Query :: Can you handle Fc1cccc(F)c1-c1nc(/C=C/c2ccccc2)no1 next?
Result :: 20 µM (active)

Query :: What would you report for C(=N/Nc1cc(N2CCCCCC2)nc(N2CCCCCC2)n1)/c1ccccc1 ?
Result :: > 99 µM (inactive)

Query :: Also, CN(C)S(=O)(=O)c1ccc2nc(NC(=O)c3sc4ccccc4c3Cl)sc2c1 please.
Result :: > 99 µM (inactive)

---

- SYSTEM NAME: Polyadenylate-binding protein 1 (Homo sapiens)
- Sequence (P11940 whole entry): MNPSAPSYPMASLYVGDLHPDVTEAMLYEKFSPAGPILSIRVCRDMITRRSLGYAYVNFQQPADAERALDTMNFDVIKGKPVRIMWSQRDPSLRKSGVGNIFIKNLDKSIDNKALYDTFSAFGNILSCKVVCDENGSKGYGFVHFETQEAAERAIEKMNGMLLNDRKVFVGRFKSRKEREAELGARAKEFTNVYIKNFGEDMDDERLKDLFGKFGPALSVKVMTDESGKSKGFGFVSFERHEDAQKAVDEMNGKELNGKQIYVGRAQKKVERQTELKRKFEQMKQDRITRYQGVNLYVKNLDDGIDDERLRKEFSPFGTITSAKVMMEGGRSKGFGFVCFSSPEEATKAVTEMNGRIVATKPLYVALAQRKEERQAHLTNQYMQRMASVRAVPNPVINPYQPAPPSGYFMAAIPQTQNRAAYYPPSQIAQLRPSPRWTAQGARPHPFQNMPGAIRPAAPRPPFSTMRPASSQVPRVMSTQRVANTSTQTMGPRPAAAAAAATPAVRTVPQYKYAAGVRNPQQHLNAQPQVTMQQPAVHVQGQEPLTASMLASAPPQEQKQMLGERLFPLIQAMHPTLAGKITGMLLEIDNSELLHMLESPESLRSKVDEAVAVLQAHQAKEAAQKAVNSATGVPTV
- METHOD NOTES: MLLE binding blockers, Cy5 peptide tracer – biochemical, fluorescence polarization, Cy5-PAM2 peptide, secondary, miRNA deadenylation inhibitor project, dose response (AID 602260)
- Assay type: functional
- CONDITION: read-out: IC50_Mean
Calls of active or inactive are those of the source.
PROPERTY NAME: IC50

Query :: Suppose we examine the molecule CCOC(=O)c1c(N2C(=O)CC(Sc3ccccc3C(=O)O)C2=O)sc2c1CCCC2 (stereo not drawn) ; what IC50 value has been reported?
Result :: > 66 µM (inactive)

Query :: Same again, this time with COc1cc(C(=O)NC(=S)Nc2ccc(NC(=O)c3ccco3)cc2)cc(OC)c1OC
Result :: > 66 µM (inactive)

Query :: Try CCCN1CCc2nc(S)nc(O)c2C1 next.
Result :: > 66 µM (inactive)

---

- SYSTEM NAME: Genome polyprotein (dengue virus type 2)
- Sequence (P29990 2492-3391 limits assumed): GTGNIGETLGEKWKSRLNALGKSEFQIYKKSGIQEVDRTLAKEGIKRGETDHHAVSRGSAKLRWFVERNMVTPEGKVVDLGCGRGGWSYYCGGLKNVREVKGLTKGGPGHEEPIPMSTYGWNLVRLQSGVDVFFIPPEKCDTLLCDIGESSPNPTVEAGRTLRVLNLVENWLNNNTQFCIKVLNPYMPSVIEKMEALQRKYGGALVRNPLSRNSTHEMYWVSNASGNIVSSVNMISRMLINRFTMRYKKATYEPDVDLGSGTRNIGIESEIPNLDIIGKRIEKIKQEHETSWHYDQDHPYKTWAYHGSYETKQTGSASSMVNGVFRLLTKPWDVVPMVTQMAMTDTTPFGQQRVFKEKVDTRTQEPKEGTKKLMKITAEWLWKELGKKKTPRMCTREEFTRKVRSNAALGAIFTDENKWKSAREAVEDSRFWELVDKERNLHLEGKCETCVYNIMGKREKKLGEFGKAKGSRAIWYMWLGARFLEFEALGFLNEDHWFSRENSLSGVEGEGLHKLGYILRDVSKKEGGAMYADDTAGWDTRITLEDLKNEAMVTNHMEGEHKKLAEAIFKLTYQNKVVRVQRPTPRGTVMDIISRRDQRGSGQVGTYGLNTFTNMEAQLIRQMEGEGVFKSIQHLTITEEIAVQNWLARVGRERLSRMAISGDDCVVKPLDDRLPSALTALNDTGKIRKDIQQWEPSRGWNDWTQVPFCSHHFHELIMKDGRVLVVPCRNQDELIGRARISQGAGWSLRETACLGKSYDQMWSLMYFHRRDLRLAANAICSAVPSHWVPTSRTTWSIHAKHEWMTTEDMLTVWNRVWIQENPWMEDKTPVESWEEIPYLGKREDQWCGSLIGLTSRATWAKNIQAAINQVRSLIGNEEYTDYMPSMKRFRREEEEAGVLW
- METHOD NOTES: flavivirus cap methylation enzyme inhibition – biochemical, confirmation dose response, primary screen (AID 588689)
- Type: functional
Activity calls are given as the source filed them.
PROPERTY NAME: IC50

Query :: Observed IC50 on Genome polyprotein (dengue virus type 2) for O=C(O)c1cccc(N2C(=O)c3cc([N+](=O)[O-])cc4cc([N+](=O)[O-])cc(c34)C2=O)c1 , please.
Result :: 26.7 µM (active)

Query :: // repeat for O=C(Nc1cc(S(=O)(=O)N2CCCCC2)ccc1O)c1ccccc1NS(=O)(=O)c1ccc(F)cc1 and report
Result :: 67.9 µM (active)

Query :: Cool, now O=C(O)CN1C(=O)/C(=C\c2cc(Br)ccc2OCc2ccc(Cl)cc2Cl)SC1=S
Result :: 28.8 µM (active)

Query :: Next record, please: O=C(O)CC1SC(N/N=C/c2ccc(-c3ccc(Cl)cc3[N+](=O)[O-])o2)=NC1=O (stereo not given)
Result :: 34.8 µM (active)

Query :: Now the molecule Cc1cccc(-n2c3nc(=O)[nH]c(=O)c-3cc3cc([N+](=O)[O-])ccc32)c1
Result :: 32.7 µM (active)

---

- SYSTEM NAME: Dual specificity protein phosphatase 6 (Rattus norvegicus, UniProt Q64346)
- Sequence (Q64346 whole entry): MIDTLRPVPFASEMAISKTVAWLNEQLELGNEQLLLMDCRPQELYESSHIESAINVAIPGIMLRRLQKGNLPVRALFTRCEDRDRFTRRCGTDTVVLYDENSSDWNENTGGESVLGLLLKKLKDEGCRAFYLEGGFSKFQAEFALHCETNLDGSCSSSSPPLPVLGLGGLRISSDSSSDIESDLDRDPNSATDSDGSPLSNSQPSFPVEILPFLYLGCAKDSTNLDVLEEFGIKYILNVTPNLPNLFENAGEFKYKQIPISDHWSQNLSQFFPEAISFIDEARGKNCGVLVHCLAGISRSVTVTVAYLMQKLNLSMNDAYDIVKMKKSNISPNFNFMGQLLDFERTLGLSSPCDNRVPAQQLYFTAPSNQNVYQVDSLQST
- METHOD NOTES: inhibition of rat DUSP6 enzyme activity – biochemical, in vitro, primary screen (AID 425)
Calls of active or inactive are those of the source.
Please provide measured IC50 for the entries that follow.

Query :: Param item = CCn1nc(-c2cccs2)nc2c(=O)n(C)c(=O)nc1-2 ; retrieve measured IC50.
Result :: 1.98 µM (active)

Query :: Also need CCCCn1c(NC(=O)c2ccccc2)c(C#N)c2nc3ccccc3nc21 , thanks.
Result :: > 100 µM (not active)

Query :: Note, next up: Cc1cc(=O)oc2cc(OCC(=O)N/N=C/c3cc([N+](=O)[O-])ccc3O)ccc12
Result :: 24 µM (active)

Query :: Then what about the compound NS(=O)(=O)c1cc(C(=O)NC2CCSc3ccccc32)ccc1Cl (stereo not given) ?
Result :: > 158 µM (not active)

Query :: Request: N#Cc1c(N2CCCC2)nc(N)c2c(N)nc(N3CCCC3)cc12
Result :: 1.05 µM (active)

---

Kindly supply the reported EC50 values for the records listed here.
- SYSTEM NAME: Short transient receptor potential channel 4 (Mus musculus, UniProt Q9QUQ5)
- Sequence (Q9QUQ5 whole entry): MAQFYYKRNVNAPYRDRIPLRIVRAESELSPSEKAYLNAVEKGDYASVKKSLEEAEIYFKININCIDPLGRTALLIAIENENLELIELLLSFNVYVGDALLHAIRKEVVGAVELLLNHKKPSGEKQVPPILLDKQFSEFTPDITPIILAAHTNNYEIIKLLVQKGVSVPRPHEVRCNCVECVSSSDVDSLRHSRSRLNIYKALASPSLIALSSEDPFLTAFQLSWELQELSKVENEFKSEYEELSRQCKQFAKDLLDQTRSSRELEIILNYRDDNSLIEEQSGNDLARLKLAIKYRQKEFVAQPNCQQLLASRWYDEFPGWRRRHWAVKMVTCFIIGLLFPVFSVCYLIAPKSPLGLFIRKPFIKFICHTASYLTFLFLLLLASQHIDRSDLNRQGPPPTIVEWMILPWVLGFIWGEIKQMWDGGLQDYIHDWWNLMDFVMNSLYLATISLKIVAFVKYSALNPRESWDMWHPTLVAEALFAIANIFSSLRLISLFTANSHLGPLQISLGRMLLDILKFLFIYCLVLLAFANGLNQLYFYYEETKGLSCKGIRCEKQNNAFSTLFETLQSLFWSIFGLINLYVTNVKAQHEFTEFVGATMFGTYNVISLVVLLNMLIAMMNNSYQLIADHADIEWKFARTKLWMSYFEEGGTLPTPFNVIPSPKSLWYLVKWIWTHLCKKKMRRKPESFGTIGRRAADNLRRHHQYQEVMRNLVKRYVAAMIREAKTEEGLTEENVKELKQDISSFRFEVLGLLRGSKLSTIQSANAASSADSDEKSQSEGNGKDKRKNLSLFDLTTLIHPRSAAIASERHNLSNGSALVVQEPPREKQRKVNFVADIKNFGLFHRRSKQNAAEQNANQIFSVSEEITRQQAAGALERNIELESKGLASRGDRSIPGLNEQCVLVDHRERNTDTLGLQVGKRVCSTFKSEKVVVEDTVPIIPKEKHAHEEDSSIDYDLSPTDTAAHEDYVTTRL
- METHOD NOTES: calcium entry via TRPC4 opening agents – cell-based, HEK293 TRPC4/mu-opioid, Fluo-4 calcium, dose response (AID 434937)
- Type: functional
Calls of active or inactive are those of the source.

Query :: I have this compound here, CC1Cc2ccccc2N1C(=O)CSc1nc2c(c(=O)n(C)c(=O)n2C)n1Cc1ccccc1 (configuration not stated) , and I need its recorded EC50.
Result :: 2110 nM (active)

Query :: Again, but for Cc1ccc(-n2cc(CNCCc3nc(C)c[nH]3)c(-c3ccc(F)cc3)n2)cc1
Result :: 6680 nM (active)

Query :: Try this compound too: CN(C)CCCOc1cccc(Cl)c1
Result :: 60 nM (active)

Query :: Try this compound next: COc1ccc(CCN(C)C(=O)C2CCCN(C3CCN(Cc4ccccc4)CC3)C2)cc1OC (configuration not stated)
Result :: 1190 nM (active)

Query :: How about this compound: CN1C2C=C(N(CCc3c[nH]c4ccccc34)C(=O)c3ccc(Cl)cc3)CC1CC2 (configuration not stated)
Result :: 596 nM (active)

Query :: Queued: COc1cccc(CN2CCNC(=O)C2CC(=O)N(C)CCc2ccccn2)c1OC (configuration not stated)
Result :: 6680 nM (active)

Query :: Okay, and CC(C)C1CC(CCNCc2ccc3c(c2)OCO3)(c2ccccc2)CCO1 (configuration not stated) ?
Result :: 5960 nM (active)
